Attribution: ChEMBL document CHEMBL3414511

- System: Mus musculus
- measurement.description: Acute toxicity in Kunming mouse assessed as shiny fur at 500 mg/kg, po administered for 3 days measured during compound dosing and following 14 days
- Type: organism-based
- Design: dose 500 mg/kg, route oral
- test.context: in vivo, 336 h

# structure, Activity
data = [
    ("CCOC(=O)c1cc2cc3c(cc2s1)OCO3", "Non-toxic"),
    ("CCOC(=O)c1cc2ccc(OC)cc2o1", "Non-toxic"),
    ("CCOC(=O)c1ccc2cc(C(=O)/C=C/c3ccccc3)sc2c1", "Non-toxic"),
    ("CC(=O)c1cc2cc(C(=O)O)ccc2s1", "Non-toxic"),
]

* * *

Each entry below carries its recorded Activity.
- System: Rattus norvegicus
- measurement.description: Antiosteoporotic activity in glucocorticoid-induced Wistar rat osteoporosis model assessed as trabecula resorption surface at 30 mg/kg/day, po administered six times a week for 3 months by fluorescence assay (reference value: 7.22 +/- 2.04%)
- Assay type: functional
Value expressed in %; do not type the unit.

# structure, target.entity, metric, experimental.value
rows = [
    ("CCOC(=O)c1cc2cc3c(cc2s1)OCO3", "Rattus norvegicus", "Activity", 9.43),
    ("CCOC(=O)c1ccc2cc(C(=O)/C=C/c3ccccc3)sc2c1", "Rattus norvegicus", "Activity", 8.58),
    ("CCOC(=O)c1cc2ccc(OC)cc2o1", "Rattus norvegicus", "Activity", 8.23),
    ("COC(=O)c1ccc2cc(C(C)=O)sc2c1", "Rattus norvegicus", "Activity", 9.52),
]

We next turn to a different molecule, shown below.
Activity recorded for this molecule, CC(=O)c1cc2ccccc2s1 , is 8.36

* * *

Each entry below carries its recorded Activity.
- Test system: Rattus norvegicus
- measurement.description: Toxicity in glucocorticoid-induced Wistar rat osteoporosis model assessed as triglycerides level at 30 mg/kg/day, po administered six times a week for 3 months (reference value: 1.13 +/- 0.69 mmol/L)
- Assay type: organism-based
- Set-up: route oral
- test.context: in vivo
Value expressed in mmol/L; do not type the unit.

Consider the following illustrative entries.
# structure, target.entity, metric, experimental.value
data = [
    ("CC(=O)c1cc2ccc(C(=O)O)cc2s1", "Rattus norvegicus", "Activity", 0.53),
    ("CCOC(=O)c1cc2ccc(OC)cc2o1", "Rattus norvegicus", "Activity", 0.38),
    ("CC(=O)c1cc2cc(C(=O)O)ccc2s1", "Rattus norvegicus", "Activity", 0.62),
]

We next turn to a different molecule, shown below.
Activity recorded for this molecule, CC(=O)c1cc2ccccc2s1 , is 0.46
